Kindly state inhibition for each of the entries shown.
# procedure text: inhibitors of TNFa-induced NFkB p65 translocation, primary screen, imaging, HUVEC, MLSMR starter and 10KST1 sets (AID 438);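 also: compound added about 3h40 before a 20 min TNFalpha stimulation; signal is the nuclear over cytoplasmic p65 intensity ratio per well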
# condition details: HUVEC TNFa-induced p65 nuclear translocation; at 2 µM, stronger effect = higher value, 0% TNFa-plus-vehicle, 100% no-TNFa wells
Answers are plain numbers, in %.

Sample records with inhibition:
Name the reported inhibition value associated with the molecule COc1cc2c(cc1OC)C(/C(C#N)=N\O)=NC(C)(C)C2
-39.6

Another molecule to look at: CC1=Nn2c(nnc2-c2cc(-c3ccccc3)n[nH]2)SC1
-3.3

Another molecule to look at: CCCc1cc(-c2n[nH]c(C)c2-c2ccc(C(=O)OCC)o2)c(O)cc1O
2

Below are some molecules; for each one, tell me its inhibition.
1. COCCNC(=O)C(c1cccs1)N(C(=O)Cn1nnc2ccccc21)c1ccccc1 (stereo not given)
2. Cc1occc1-c1nnc(SCC(=O)NCC2CCCO2)n1C (stereo not given)
3. COc1ccccc1Nc1nc(N)nc(CSc2nccc(C)n2)n1
4. COc1cc(OC)c(C(=O)Nc2ncn[nH]2)cc1OC
5. CCOC(=O)C1=C(C)NC(=O)NC1c1ccc(Br)s1 (stereo not given)

[5.9, -0.3, -8.6, -1.1, 1.2]

---

Kindly state nuclei count for each of the entries shown.
# procedure text: endothelial E-selectin expression blockers – imaging, HUVEC, immunofluorescence, MLSMR starter and 10KST1 sets, primary screen (AID 487);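 also: 100% = median nuclei count of all wells on the same plate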
# condition details: HUVEC TNFalpha-induced E-selectin immunofluorescence imaging, at 2 µM; measured here: cell number, toxicity
Answers are plain numbers, in %.

Sample records with nuclei count:
Name the reported nuclei count value associated with the compound O=C(NCC(c1cccnc1)N1CCN(c2ccc(F)cc2)CC1)OCc1ccccc1 (stereo not given)
126

Another compound to look at: CCOC(=O)Cn1ncc(-c2ccccc2)c1N
96.2

Below are some compounds; for each one, tell me its nuclei count.
1. CC(C(=O)Oc1ccc2c(c1)OCO2)N1C(=O)c2ccccc2C1=O (stereo not given)
2. CCN(C(=O)c1ccnc(C(C)(C)C)c1)c1ccccc1
3. CC(C)c1ccc(C(O)c2cnc(C(C)C)n2C)cc1 (stereo not given)
4. COc1cccc(OCCSc2nnc3sc4ccccc4n23)c1
5. CN(C)S(=O)(=O)c1ccc2c(c1)C(CC(=O)O)OC2=O (stereo not given)
6. CCOC(=O)Cn1c(CN2CCOCC2)nc2c1c(=O)[nH]c(=O)n2C
7. O=C(CS(=O)(=O)Cc1ccccc1)N1CCc2ccccc2C1
8. COc1ccc(/C=N/n2c(SC)nnc2-c2ccccc2)cc1C

1: 101; 2: 128; 3: 106; 4: 127; 5: 105; 6: 118; 7: 124; 8: 117

---

Kindly state inhibition for each of the entries shown.
# procedure text: TLR3 IRF3 reporter activation blockers – cell-based, poly I:C stimulus, luciferase, 10K MLSCN set, primary screen (AID 602277)
# condition details: HEK293-TLR3 RL24 IRF3 luciferase reporter, at 10 µM, stronger effect = higher value
One number for each entry, in %.

Sample records with inhibition:
Name the reported inhibition value associated with the molecule O=S(=O)(Nn1cnnc1)c1ccccc1Cl
-10.4

Another molecule to look at: Nn1c(SCC(=O)Nc2ccc(S(=O)(=O)N3CCCC3)cc2)nnc1C(F)(F)F
12.8

Another molecule to look at: O=C1CCCc2c1nn(-c1ccccc1)[n+]2[O-]
5.41

Below are some molecules; for each one, tell me its inhibition.
1. CCn1c(SCc2nc(-c3cccs3)no2)nnc1-c1c[nH]c2ccccc12
2. Cc1nc2cc(NC(=O)N3c4ccccc4CC3C)ccc2o1 (stereo unspecified)
3. COc1ccc(CCNc2oc(-c3ccccc3OC)nc2C#N)cc1
4. O=C(COC(=O)c1cc(S(=O)(=O)N2CCOCC2)cs1)c1ccccc1
5. O=C(CN1C(=O)c2ccccc2C1=O)Nc1ccc(S(=O)(=O)NCC2CCCO2)cc1 (stereo unspecified)
6. C(#Cc1ccccc1)Cn1nnc2ccccc21
7. CCC1C(=O)n2nc(-c3ccccc3)cc2N=C1C (stereo unspecified)

[13.6, -4, 12.4, 29.5, 98.2, -170, -37]

Below are some molecules; for each one, tell me its inhibition.
1. Cn1c(SCC(=O)Nc2ccc(F)cc2)nnc1-c1cccnc1
2. Cc1occc1C(=O)Nc1ccc(S(=O)(=O)N2CCN(C)CC2)cc1
3. Cc1cc(-c2ccccc2)nc2cc(C(=O)NCCCn3ccnc3)nn12
4. CC(=O)Nc1ccccc1-c1nc2ccc(C(=O)N3CCN(c4ccccc4)CC3)cc2[nH]c1=O
5. O=C1C2C3C=CC(C3)C2C(=O)N1CNc1ccc(O)cc1 (stereo unspecified)

[21.7, 16.1, 25.4, -0.673, 2.67]

Below are some molecules; for each one, tell me its inhibition.
1. CC(=O)N(CCc1ccccc1C)Cc1cc2cc3c(cc2[nH]c1=O)OCO3
2. O=C(CSc1n[nH]c(=O)[nH]c1=O)c1ccccc1

[15.6, 0.379]

Below are some molecules; for each one, tell me its inhibition.
1. Cc1ccc2c(c1C)NC(C(=O)O)C1CC=CC21 (stereo unspecified)
2. O=C(Nc1cccc2ccccc12)c1ccc(Br)o1
3. Cc1ccc(C)c(N2CCN(CCCNC(=O)Cn3cc4c(n3)CCC(C)C4)CC2)c1 (stereo unspecified)
4. COCCNc1nc(SCC(=O)N2CCN(c3ccccc3)CC2)nc2ccccc12
5. Cc1ccc(C)c(OCC(O)CN2C(C)CCCC2C)c1 (stereo unspecified)

1. 18.5
2. 19.8
3. 41
4. 8.34
5. 26.5

---

# study system: Voltage-gated potassium channel subunit beta-2 (Rattus norvegicus) (UniProt P62483)
# Sequence (P62483 whole entry, looked up): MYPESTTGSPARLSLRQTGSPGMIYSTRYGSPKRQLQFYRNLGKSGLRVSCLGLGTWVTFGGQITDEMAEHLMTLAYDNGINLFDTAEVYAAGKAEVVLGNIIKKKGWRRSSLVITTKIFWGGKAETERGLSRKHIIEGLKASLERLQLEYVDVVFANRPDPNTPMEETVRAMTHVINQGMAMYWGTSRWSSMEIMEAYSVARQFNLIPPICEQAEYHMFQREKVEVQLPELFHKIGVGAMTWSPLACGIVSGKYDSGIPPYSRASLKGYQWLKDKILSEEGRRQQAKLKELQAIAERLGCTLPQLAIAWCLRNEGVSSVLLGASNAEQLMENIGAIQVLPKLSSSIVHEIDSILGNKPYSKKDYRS
# procedure text: inhibitors of rat Kvbeta2 reductase activity – biochemical, NADPH fluorescence, primary screen (AID 622);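 also: slope of raw intensity against log time taken from 70 to 1610 s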
# condition details: recombinant KvBeta, 4-cyanobenzaldehyde reduction, at 10 µM, stronger effect = higher value
assay endpoint: fluorescence slope
Give bare numbers.

Sample records with fluorescence slope:
Any idea what fluorescence slope came out for Cc1ccc2nc3c(cc2c1)CN(Cc1ccco1)C(=NCC1CCCO1)S3 (configuration not stated) on Voltage-gated potassium channel subunit beta-2 (Rattus norvegicus) (UniProt P62483)?
-0.372

Another compound to look at: COc1oc(-c2ccccc2)nc1C(F)(F)F
-0.473

Another compound to look at: COc1cc(C(Nc2ccc3c(c2)OCO3)C(=O)NC2CCCCC2)cc(OC)c1OC (configuration not stated)
-0.63

Another compound to look at: O=C(CSc1nnnn1-c1ccccc1)Nc1ccc(Cl)cc1
-0.377

Another compound to look at: Cc1nn(-c2nc3ccccc3s2)c(C)c1Oc1ccccc1O
-0.437

Below are some compounds; for each one, tell me its fluorescence slope.
1. O=C1OCCC1Sc1ncnc2sc3c(c12)CCC3 (configuration not stated)
2. O=S(=O)(c1cccc(S(=O)(=O)N2CCC(N3CCCCC3)CC2)c1)N1CCOCC1
3. Cc1nnc(NC(=O)CCC(=O)N2CCC(C)CC2)s1

[-0.412, -0.469, -0.465]

---

# study system: Voltage-gated potassium channel subunit beta-2 (Rattus norvegicus)
# procedure text: enhancers of rat Kvbeta2 NADPH turnover – biochemical, NADPH fluorescence, primary screen (AID 623);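 also: fluorescence intensity change per second fitted from 20 to 320 s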
# condition details: Recombinant KvBeta, NADPH fluorescence decrease slope, 10 min; at 10 µM; stronger effect = lower value
Kindly state NADPH fluorescence slope for each of the entries shown.
Numbers only.

Name the reported NADPH fluorescence slope value associated with the compound Cc1cc(C(=O)COc2cccc3cccnc23)c(C)n1C
-1.7e-05

Another compound to look at: COCCN(CCOC)C(=O)c1sc2nc(-c3ccccc3)cn2c1C
-9.4e-06

Below are some compounds; for each one, tell me its NADPH fluorescence slope.
1. CCOc1ccccc1N1CC(O)=C(c2nc3ccccc3s2)C1=N
2. COc1cccc(C(=O)Nc2ccc(NC(C)=O)cn2)c1
3. COc1ccccc1CNC(=O)C(C)NS(=O)(=O)c1ccccc1 (stereo not drawn)
4. CCSc1nc2ccccc2n1CCC(=O)O
5. O=C(CN(Cc1ccc(F)cc1)C(=O)Cn1nnc2ccccc21)NCC1CCCO1 (stereo not drawn)
6. COc1ccc(/C=N/n2cnnc2SCc2ccc(OC)cc2)cc1
7. CCC(=O)N1C(=O)CCN(C(C)=O)c2ccccc21

1: -3.9e-05; 2: -5.3e-05; 3: 2.3e-06; 4: -0.000157; 5: 7.2e-05; 6: -4.9e-05; 7: 2.5e-05

Below are some compounds; for each one, tell me its NADPH fluorescence slope.
1. CCc1nnc(NC(=O)CSc2nnc3ncccn23)s1
2. Cc1nn(Cc2ccccc2)c(C)c1NC(=O)c1cc(-c2ccco2)on1
3. CN(C)c1ccc(NC(=O)Nc2cccc(Cl)c2)cc1
4. COc1ccccc1N1CCN(C(=O)CCNS(=O)(=O)c2ccc3c(c2)CCC(=O)N3)CC1
5. CC(=O)Nc1ccccc1OCc1nnc(-c2cccs2)o1
6. COC(=O)c1c(NC(=O)CCc2ccc(C)o2)sc(C)c1C
7. CCOC(=O)C(C)C1(O)c2ccccc2-c2ncccc21 (stereo not drawn)
8. O=C(CCn1[nH]c(=O)c2ccccc2c1=O)NCCO

["-9.3e-05", "-6.8e-06", "-3.6e-05", "-1.7e-05", "2e-06", "-1.6e-05", "-6.5e-05", "-5.6e-05"]

Name the reported NADPH fluorescence slope value associated with the compound O=C1c2ccccc2C(=O)N1c1cccc(-c2nc3ccccc3o2)c1
-5.2e-05
